Test system: ApoB secretion, HepG2 cells
assay_text: Quantification of the secretion of ApoB (HepG2 cells, immunoprecipitation, scintillation counting)
Format: cell-based
experimental_parameters: Homo sapiens, 24 hours of incubation
// values below are reported pIC50
For clarity, pIC50 is expressed as the negative log10 of concentration in mol/L.

Some solved cases for reference:
compound="CCCNC(=O)C(c1ccccc1)C1CCN(c2ccc(NC(=O)c3ccccc3-c3ccc(C(F)(F)F)cc3)cc2)CC1 (stereo not shown) [Co. No. 38]" measured_metric=pIC50 recorded_number=8.18
compound="CCNC(=O)N(c1ccccc1)C1CCN(c2ccc(NC(=O)c3ccccc3-c3ccc(C(F)(F)F)cc3)cc2)CC1 [Co. No. 252]" measured_metric=pIC50 recorded_number=7.92
compound="COC(=O)N(c1ccccc1)C1CCN(c2ccc(NC(=O)c3ccccc3-c3ccc(C(F)(F)F)cc3)cc2)CC1 [Co. No. 251]" measured_metric=pIC50 recorded_number=8.02

Recorded pIC50 for CC(=O)N(c1ccccc1)C1CCN(c2ccc(NC(=O)c3ccccc3-c3ccc(C(F)(F)F)cc3)cc2)CC1 [Co. No. 253] on ApoB secretion, HepG2 cells was 6.89

###

// values below are reported pIC50
System: ApoB secretion, HepG2 cells
assay_text: Quantification of the secretion of ApoB (HepG2 cells, immunoprecipitation, scintillation counting)
Type: cell-based
experimental_parameters: Homo sapiens, HepG2, 24 h, 24 hours of incubation
For clarity, pIC50 is expressed as the negative log10 of concentration in mol/L.

compound="CCNC(=O)C(c1ccccc1)N1CCCN(c2ccc(NC(=O)c3ccccc3-c3ccc(C(F)(F)F)cc3)cc2)CC1 (stereo not shown) [Co. No. 122]" target_or_test_system="ApoB secretion, HepG2 cells" measured_metric=pIC50 recorded_number=6.38
compound="O=C(Nc1ccc(N2CCC(C(C(=O)NCc3ccccc3)c3ccccc3)CC2)cc1)c1ccccc1C(=O)c1ccccc1 (stereo not shown) [Co. No. 5]" target_or_test_system="ApoB secretion, HepG2 cells" measured_metric=pIC50 recorded_number=6.80
compound="CC(C)CCOC(=O)C(c1ccccc1)N1CCC(c2ccc(NC(=O)c3ccccc3-c3ccc(C(F)(F)F)cc3)cc2)CC1 (stereo not shown) [Co. No. 227]" target_or_test_system="ApoB secretion, HepG2 cells" measured_metric=pIC50 recorded_number=6.73
compound="COC(=O)C(c1ccccc1)N1CCN(c2ccc(NC(=O)c3ccccc3-c3ccc(C(F)(F)F)cc3)c(C)c2)CC1 (stereo not shown) [Co. No. 208]" target_or_test_system="ApoB secretion, HepG2 cells" measured_metric=pIC50 recorded_number=8.13
compound="O=C(Nc1ccc(N2CCC(C(C(=O)NCc3ccccc3)c3ccccc3)CC2)cc1)c1ccccc1COc1ccccc1 (stereo not shown) [Co. No. 7]" target_or_test_system="ApoB secretion, HepG2 cells" measured_metric=pIC50 recorded_number=6.58

Measured pIC50 of CCCNC(=O)C(c1ccccc1)C1CCN(c2ccc(NC(=O)c3ccccc3-c3ccccc3OC)cc2)CC1 (stereo not shown) [Co. No. 43] : 5.75

Measured pIC50 of COC(=O)C(c1ccc(Br)cc1)N1CCN(c2ccc(NC(=O)c3ccccc3-c3ccc(C(F)(F)F)cc3)cc2)CC1 (stereo not shown) [Co. No. 261] : 6.13
